System: RPMI-8226 leukemia
Assay: NCI-60 one-dose screen, 48 h (100 = growth as untreated, 0 = no growth, -100 = all killed)
Conditions: 10 µM unless noted
Experimental: Growth inhibition of the RPMI-8226 human tumor cell line is measured as a screen for anti-cancer activity. Cells are grown in 96 well plates and exposed to the test compound for 48 hours. Compounds are tested at a single concentration, which is 10^-5 M for most compounds. The reported endpoint is percent growth (GI% or GIPRCNT), where numbers from 0 - 100% represent growth inhibition, and numbers from -100% - 0 represent cell death. For example, a value of 40 represents 60% growth inhibition. […]
Compounds without any hit were thinned out: in the full panel of roughly 83,000, 20% have a hit.
Readout name: growth (%)

compound=COc1ccc2c(c1)C(=O)/C(=C/c1ccc([N+](=O)[O-])s1)O2 readout_name=growth result=-12
compound=COc1ccc(-c2cncn2-c2ccc(-c3nc4cc(OC)c(OC)c(OC)c4s3)cc2)cc1N readout_name=growth result=62.2
compound="COc1ccc(C2CC(c3ccc(OC)c(OC)c3)=NN2C(=O)c2cc(OC)c(OC)c(OC)c2)cc1 (stereo not given)" readout_name=growth result=50.2
compound=Cc1ccsc1/C=C/C1=NCCCN1C readout_name=growth result=100
compound=Cn1cc(-c2csc(-c3cn(C)c4ncccc34)n2)c2cccnc21 readout_name=growth result=87.5
compound=COc1ccc2c(c1)C(=O)c1c-2c(OCCN(C)C)nc2cc(OC)ccc12 readout_name=growth result=-25.4
compound=Cc1cc(NC(=O)Nc2cc(Cl)ccc2C)no1 readout_name=growth result=88.8
compound=COc1ccc(-c2nc3sccn3c2-c2ccnc(S(C)(=O)=O)n2)cc1 readout_name=growth result=86.5
compound=c1ccc2c(c1)[nH]c1c2cc[n+]2cc3c(cc12)CCCC3 readout_name=growth result=32.6
compound="COc1cc(C2NC(c3ccc(Cl)cc3)C(C)C(=NC(=O)c3cnccn3)C2C)cc(OC)c1OC (stereo not given)" readout_name=growth result=79.4
